REPORTED_PROPERTY: IC50

Entry Cc1ccc(F)cc1C(=O)NCC1=NOC(C(=O)N[C@@H](CC(C)C)B(O)O)C1 (some centres unmarked) under Proteasome chymotrypsin-like activity (S26 protein from RPMI8226 cells) (Homo sapiens) had IC50 of < 50 nM

Proteasome chymotrypsin-like activity (S26 protein from RPMI8226 cells) (Homo sapiens) assay, compound CC(C)C[C@H](NC(=O)C1(Cc2ccccc2)CC(CNC(=O)c2ccnnc2)=NO1)B(O)O (some centres unmarked) , recorded IC50 = < 25 nM

Summary: CCOCC1(C(=O)N[C@@H](CC(C)C)B(O)O)CC(CNC(=O)c2nccc3ccccc23)=NO1 (some centres unmarked) , Proteasome chymotrypsin-like activity (S26 protein from RPMI8226 cells) (Homo sapiens), IC50 = < 10 nM

// assay Proteasome chymotrypsin-like activity (S26 protein from RPMI8226 cells) (Homo sapiens), entry CC(C)C[C@H](NC(=O)C1(Cc2cccc(Cl)c2)CC(CNC(=O)c2cc(-c3ccccc3)nn2C(C)C)=NO1)B(O)O (some centres unmarked) , IC50 value = < 10 nM

Record COc1ccc(-c2cccc(COCC3=NOC(Cc4ccccc4)(C(=O)N[C@@H](CC(C)C)B(O)O)C3)c2)cc1 (some centres unmarked) has Proteasome chymotrypsin-like activity (S26 protein from RPMI8226 cells) (Homo sapiens) IC50 equal to < 10 nM
